Cited source for all entries: patent US10159685B2

System: bovine vascular smooth muscle cells (bVSMCs)
Experiment: o-Cresolphthalein Ca2+ assay, bVSMC GAD calcification model (Examples 4 and 5)
Type: cell-based
Conditions: GAD-treated bVSMCs, 10 μM, 7 d
OBSERVABLE: Normalised calcium levels (mass of calcium per mass of protein, FIG. 9B)

> print(dat)
                           substance.smiles                  result
1  CN(C)CC(=O)Nc1ccc2[nH]c(=O)c3ccccc3c2c1.Cl  elevate calcium levels
2  OCCN(CCO)c1nc(N2CCCCC2)c2nc(N(CCO)CCO)nc(N3CCCCC3)c2n1  elevate calcium levels

* * *

System: human monocyte-macrophages (HMMs)
Assay: MTT toxicity assay, HMMs, seven days (Example 3)
Format: cell-based
Details: 20 uM, 7 days, MTT, mean of three experiments
OBSERVABLE: Cell viability by MTT, percent of control
One number for each entry.

Would you please look over these solved cases?
> print(dat)
                                   compound  numeric.result
1  O=C1CCc2cc(OCCCCc3nnnn3C3CCCCC3)ccc2N1 [cilostazol]           81.50
2  CN(C)CC(=O)Nc1ccc2[nH]c(=O)c3ccccc3c2c1.Cl [PJ34]           74.86
3  CC(=O)CCCCn1c(=O)c2c(ncn2C)n(C)c1=O [Pentoxifylline, pentoxifylline]           93.54
4  NC(=O)c1cccc(N)c1 [3-AB, 3-aminobenzamide]           85.76

Please supply Cell viability by MTT, percent of control for each of the following items, keeping them in order.
1. COc1ccc([C@@H]2Sc3ccccc3N(CCN(C)C)C(=O)[C@@H]2OC(C)=O)cc1 [Diltiazem, diltiazem]
2. O=C1NCCc2c(OCCCCN3CCCCC3)cccc21 [DPQ]
3. COc1ccccc1Oc1c(NS(=O)(=O)c2ccc(C(C)(C)C)cc2)nc(-c2ncccn2)nc1OCCO [bosentan MH, Bosentan monohydrate]

1: 100.42; 2: 91.99; 3: 83.25
